# System: human prostate cancer PC-3 cells
# measurement_description: Cell Titre Glo luminescent cell viability assay, PC-3
# Assay type: cell-based
# measurement_context: 72 h, incubated 3 days, 0.3 nM~10 μM, 0.1% DMSO
measured_metric: IC50

CC[C@@]1(O)C(=O)OCc2c1cc1n(c2=O)Cc2cc3cc4c(cc3nc2-1)CCO4 [Example 6]: > 1 µM
CC[C@@]1(O)C(=O)OCc2c1cc1n(c2=O)Cc2cc3cc(OC)c(O)cc3nc2-1 [Example 7]: < 0.1 µM
CC[C@@]1(O)C(=O)OCc2c1cc1n(c2=O)Cc2c-1nc1cc(F)c(OC)cc1c2N [Example 11]: < 0.1 µM

IC50 reading for CC[C@@]1(O)C(=O)OCc2c1cc1n(c2=O)Cc2c-1nc1cc(F)c(OC)cc1c2C [Example 12] : < 0.1 µM

----------
# Tested on: human prostate cancer PC-3 cells
# measurement_description: Cell Titre Glo luminescent cell viability assay, PC-3
# Format: cell-based
# measurement_context: 72 h, incubated 3 days, 0.3 nM~10 μM, 0.1% DMSO
pIC50: −log10 of the molar value.
measured_metric: pIC50

Please review the following examples before continuing.
CC[C@@]1(O)C(=O)OCc2c1cc1n(c2=O)Cc2cc3c(OC)nccc3nc2-1 [Example 2]: < 6.00
CC[C@@]1(O)C(=O)OCc2c1cc1n(c2=O)Cc2cc3cc(OC)c(F)cc3nc2-1 [Example 9]: > 7.00
CC[C@@]1(O)C(=O)OCc2c1cc1n(c2=O)Cc2cc3c(O)nccc3nc2-1 [Example 3]: < 6.00

Param item: CC[C@@]1(O)C(=O)OCc2c1cc1n(c2=O)Cc2cc3c(N(C)C)nccc3nc2-1 [Example 4] ; param system: human prostate cancer PC-3 cells; output pIC50: > 6.30

Param item: CC[C@@]1(O)C(=O)OCc2c1cc1n(c2=O)Cc2cc3cc(O)c(F)cc3nc2-1 [Example 8] ; param system: human prostate cancer PC-3 cells; output pIC50: > 7.00

Param item: CC[C@@]1(O)C(=O)OCc2c1cc1n(c2=O)Cc2cc3ccc(OC)c(O)c3nc2-1 [Example 10] ; param system: human prostate cancer PC-3 cells; output pIC50: > 6.30

Param item: CC[C@@]1(O)C(=O)OCc2c1cc1n(c2=O)Cc2cc3nc(OC)ccc3nc2-1 [Example 5] ; param system: human prostate cancer PC-3 cells; output pIC50: > 6.30

Param item: CC[C@@]1(O)C(=O)OCc2c1cc1n(c2=O)Cc2cc3cc(OC)ncc3nc2-1 [Example 1] ; param system: human prostate cancer PC-3 cells; output pIC50: > 6.30

----------
# Test system: human lung cancer A549 cells
# measurement_description: Cell Titre Glo luminescent cell viability assay, A549
# Assay type: cell-based
# measurement_context: 72 h, incubated 3 days, 0.3 nM~10 μM, 0.1% DMSO
pIC50: −log10 of the molar value.
measured_metric: pIC50

Please review the following examples before continuing.
CC[C@@]1(O)C(=O)OCc2c1cc1n(c2=O)Cc2cc3cc(OC)c(F)cc3nc2-1 [Example 9]: > 7.00
CC[C@@]1(O)C(=O)OCc2c1cc1n(c2=O)Cc2cc3c(N(C)C)nccc3nc2-1 [Example 4]: > 7.00
CC[C@@]1(O)C(=O)OCc2c1cc1n(c2=O)Cc2cc3nc(OC)ccc3nc2-1 [Example 5]: > 7.00

pIC50 reading for CC[C@@]1(O)C(=O)OCc2c1cc1n(c2=O)Cc2cc3c(O)nccc3nc2-1 [Example 3] : > 6.30
